experiment: in vitro; settings: human, hek293t cells
measured metric: viability at 48 h, 25 µM
Field note: include the unit after the figure.

q: Looking for the measured viability at 48 h, 25 µM of CCN(C(=O)CCl)c1cccc2ccccc12 [5-B08] , can you help?
a: 0.156%

q: Name the recorded viability at 48 h, 25 µM for CC(Cl)C(=O)NC(C)c1ccc(C(F)(F)F)nc1Cl (stereo not shown) [7-G09] .
a: 83.5%

q: Reported viability at 48 h, 25 µM for CC(Cl)C(=O)Nc1ccc(F)cc1 (stereo not shown) [6-K15, 2-chloro-N-(4-fluorophenyl)propanamide] : what is it?
a: 113%

q: For the molecule Cc1nn(Cc2ccccc2)c(C)c1CNC(=O)CCl [4-O11] , what viability at 48 h, 25 µM is on record?
a: 1.47%
